# Method: pH stability tests
# Type: physicochemical
# Experimental setup: pH 7.4, 4 days
Can you tell me pH stability for the items I'm about to list?

[ask] Would you mind telling me what pH stability value was observed for COCCOC(=O)NCCO/N=C(\C)C(=O)Nc1ccccc1 [drawing 138] ?
[reply] <1%

[ask] Would you mind telling me what pH stability value was observed for "COCCOC(=O)NCCO/N=C(\C)CNC(=O)c1ccccc1" ?
[reply] <1%

[ask] Would you mind telling me what pH stability value was observed for "COCCOC(=O)NCCO/N=C1\C(=O)Nc2ccccc21" ?
[reply] <1%

[ask] Would you mind telling me what pH stability value was observed for "COCCOC(=O)NCCO/N=C(\C)COc1ccccc1" ?
[reply] 15%

[ask] Would you mind telling me what pH stability value was observed for COCCOCNCCO/N=C(\C)CC(=O)c1ccccc1 [drawing 139] ?
[reply] <1%

[ask] Would you mind telling me what pH stability value was observed for COCCOCNCCO/N=C(\C)CC(=O)c1ccccc1 [drawing 135] ?
[reply] <1%

[ask] Would you mind telling me what pH stability value was observed for "COCCOC(=O)NCCO/N=C(\C)C(=O)c1ccccc1" ?
[reply] <1%

[ask] Would you mind telling me what pH stability value was observed for COCCOC(=O)NCCO/N=C(\C)C(=O)Nc1ccccc1 [drawing 134] ?
[reply] <1%

----------
# Method: pH stability tests
# Type: physicochemical
# Experimental setup: pH 5.0, 5 days
Can you tell me pH stability for the items I'm about to list?

[ask] Would you mind telling me what pH stability value was observed for "COCCOC(=O)NCCO/N=C(\C)COc1ccccc1" ?
[reply] 5%

[ask] Would you mind telling me what pH stability value was observed for COCCOC(=O)NCCO/N=C(\C)C(=O)Nc1ccccc1 [drawing 134] ?
[reply] <1%

[ask] Would you mind telling me what pH stability value was observed for "COCCOC(=O)NCCO/N=C(\C)C(=O)c1ccccc1" ?
[reply] <1%

[ask] Would you mind telling me what pH stability value was observed for "COCCOC(=O)NCCO/N=C1\C(=O)Nc2ccccc21" ?
[reply] <1%

[ask] Would you mind telling me what pH stability value was observed for COCCOCNCCO/N=C(\C)CC(=O)c1ccccc1 [drawing 139] ?
[reply] <1%

[ask] Would you mind telling me what pH stability value was observed for "COCCOC(=O)NCCO/N=C(\C)CNC(=O)c1ccccc1" ?
[reply] 7%

[ask] Would you mind telling me what pH stability value was observed for COCCOCNCCO/N=C(\C)CC(=O)c1ccccc1 [drawing 135] ?
[reply] <1%

[ask] Would you mind telling me what pH stability value was observed for COCCOC(=O)NCCO/N=C(\C)C(=O)Nc1ccccc1 [drawing 138] ?
[reply] <1%

----------
# Method: pH stability tests
# Assay type: physicochemical
# Experimental setup: pH 5.0, 10 days
Can you tell me pH stability for the items I'm about to list?

[ask] Would you mind telling me what pH stability value was observed for COCCOCNCCO/N=C(\C)CC(=O)c1ccccc1 [drawing 139] ?
[reply] <1%

[ask] Would you mind telling me what pH stability value was observed for "COCCOC(=O)NCCO/N=C(\C)CNC(=O)c1ccccc1" ?
[reply] 8%

[ask] Would you mind telling me what pH stability value was observed for "COCCOC(=O)NCCO/N=C(\C)C(=O)c1ccccc1" ?
[reply] <1%

[ask] Would you mind telling me what pH stability value was observed for COCCOC(=O)NCCO/N=C(\C)C(=O)Nc1ccccc1 [drawing 134] ?
[reply] <1%

[ask] Would you mind telling me what pH stability value was observed for "COCCOC(=O)NCCO/N=C(\C)COc1ccccc1" ?
[reply] 5%

[ask] Would you mind telling me what pH stability value was observed for "COCCOC(=O)NCCO/N=C1\C(=O)Nc2ccccc21" ?
[reply] <1%

[ask] Would you mind telling me what pH stability value was observed for COCCOC(=O)NCCO/N=C(\C)C(=O)Nc1ccccc1 [drawing 138] ?
[reply] <1%

[ask] Would you mind telling me what pH stability value was observed for COCCOCNCCO/N=C(\C)CC(=O)c1ccccc1 [drawing 135] ?
[reply] <1%

----------
# Method: pH stability tests
# Format: physicochemical
# Experimental setup: pH 4.0, 6 days
Reported property: pH stability

[ask] Would you mind telling me what pH stability value was observed for COCCOC(=O)NCCO/N=C(\C)C(=O)Nc1ccccc1 [drawing 138] ?
[reply] <1%

[ask] Would you mind telling me what pH stability value was observed for "COCCOC(=O)NCCO/N=C(\C)COc1ccccc1" ?
[reply] 8%

[ask] Would you mind telling me what pH stability value was observed for COCCOCNCCO/N=C(\C)CC(=O)c1ccccc1 [drawing 139] ?
[reply] <1%

[ask] Would you mind telling me what pH stability value was observed for "COCCOC(=O)NCCO/N=C(\C)C(=O)c1ccccc1" ?
[reply] <1%

[ask] Would you mind telling me what pH stability value was observed for "COCCOC(=O)NCCO/N=C1\C(=O)Nc2ccccc21" ?
[reply] <1%

[ask] Would you mind telling me what pH stability value was observed for COCCOCNCCO/N=C(\C)CC(=O)c1ccccc1 [drawing 135] ?
[reply] 2%

[ask] Would you mind telling me what pH stability value was observed for COCCOC(=O)NCCO/N=C(\C)C(=O)Nc1ccccc1 [drawing 134] ?
[reply] <1%

[ask] Would you mind telling me what pH stability value was observed for "COCCOC(=O)NCCO/N=C(\C)CNC(=O)c1ccccc1" ?
[reply] 11%

----------
# Method: pH stability tests
# Format: physicochemical
# Experimental setup: pH 5.0, 1 hour
Reported property: pH stability

[ask] Would you mind telling me what pH stability value was observed for "COCCOC(=O)NCCO/N=C1\C(=O)Nc2ccccc21" ?
[reply] <1%

[ask] Would you mind telling me what pH stability value was observed for "COCCOC(=O)NCCO/N=C(\C)CNC(=O)c1ccccc1" ?
[reply] <1%

[ask] Would you mind telling me what pH stability value was observed for "COCCOC(=O)NCCO/N=C(\C)C(=O)c1ccccc1" ?
[reply] <1%

[ask] Would you mind telling me what pH stability value was observed for COCCOCNCCO/N=C(\C)CC(=O)c1ccccc1 [drawing 139] ?
[reply] 5.0%

[ask] Would you mind telling me what pH stability value was observed for COCCOC(=O)NCCO/N=C(\C)C(=O)Nc1ccccc1 [drawing 138] ?
[reply] 5.0%

[ask] Would you mind telling me what pH stability value was observed for "COCCOC(=O)NCCO/N=C(\C)COc1ccccc1" ?
[reply] <1%

[ask] Would you mind telling me what pH stability value was observed for COCCOC(=O)NCCO/N=C(\C)C(=O)Nc1ccccc1 [drawing 134] ?
[reply] <1%

[ask] Would you mind telling me what pH stability value was observed for COCCOCNCCO/N=C(\C)CC(=O)c1ccccc1 [drawing 135] ?
[reply] <1%

----------
Can you tell me pH stability for the items I'm about to list?
# Method: pH stability tests
# Assay type: physicochemical
# Experimental setup: pH 5.0, 2 days

[ask] Would you mind telling me what pH stability value was observed for COCCOCNCCO/N=C(\C)CC(=O)c1ccccc1 [drawing 135] ?
[reply] <1%

[ask] Would you mind telling me what pH stability value was observed for "COCCOC(=O)NCCO/N=C(\C)C(=O)c1ccccc1" ?
[reply] <1%

[ask] Would you mind telling me what pH stability value was observed for COCCOCNCCO/N=C(\C)CC(=O)c1ccccc1 [drawing 139] ?
[reply] <1%

----------
# Method: pH stability tests
# Type: physicochemical
# Experimental setup: pH 4.0, 10 days
Can you tell me pH stability for the items I'm about to list?
Please reply with the bare figure in % and do not write the unit itself.

[ask] Would you mind telling me what pH stability value was observed for "COCCOC(=O)NCCO/N=C(\C)COc1ccccc1" ?
[reply] 10

[ask] Would you mind telling me what pH stability value was observed for "COCCOC(=O)NCCO/N=C(\C)CNC(=O)c1ccccc1" ?
[reply] 11

[ask] Would you mind telling me what pH stability value was observed for COCCOCNCCO/N=C(\C)CC(=O)c1ccccc1 [drawing 135] ?
[reply] 3

----------
# Method: pH stability tests
# Assay type: physicochemical
# Experimental setup: pH 4.0, 10 days
Reported property: pH stability

[ask] Would you mind telling me what pH stability value was observed for COCCOC(=O)NCCO/N=C(\C)C(=O)Nc1ccccc1 [drawing 134] ?
[reply] <1%

[ask] Would you mind telling me what pH stability value was observed for "COCCOC(=O)NCCO/N=C1\C(=O)Nc2ccccc21" ?
[reply] <1%

[ask] Would you mind telling me what pH stability value was observed for COCCOCNCCO/N=C(\C)CC(=O)c1ccccc1 [drawing 139] ?
[reply] <1%
